List of Population Apoptotic (%) values.
system: U2OS; experiment: Multiplex assay against U2OS; format: toxicity, cell-based; conditions: human, 24 h, 10 µM, compound concentration 10 uM, replicate 1
Measure Name: Population Apoptotic (%)

CNC(=O)Nc1ccc2c(c1)[C@@]1(CC2)OC(=O)N(CC(=O)N(Cc2ccc(F)cc2)[C@@H](C)C(F)(F)F)C1=O; 46%
CNC(=O)Nc1ccc(-c2nc(N3CC4CCC(C3)O4)c3cnn(C4CCC5(CC4)OCCO5)c3n2)cc1; 51%
CC1=C(C(=O)Nc2cc3cn[nH]c3cc2F)C(c2ccc(C(F)(F)F)cc2)CC(=O)N1 (configuration not stated); 66%
C=CC(=O)Nc1ccc2[nH]c(=O)n(C3CCN(Cc4ccc(-c5nc6cc[nH]c(=O)c6cc5-c5ccccc5)cc4)CC3)c2c1; 66%
Cc1cccc(CN2CCN(C(c3ccccc3)c3ccc(Cl)cc3)CC2)c1.Cl.Cl (configuration not stated); 42%
CC(C)(C)NC[C@H](O)COc1nsnc1N1CCOCC1; 20%
COc1ccccc1CN[C@H]1C2CCN(CC2)[C@H]1C(c1ccccc1)c1ccccc1; 75%
Cc1ccc(C)c(Oc2ccncc2C(=O)N2CCN(C3CC3)c3ccccc32)c1; 51%
CCCSc1nc(N[C@@H]2C[C@H]2c2ccc(F)c(F)c2)c2nnn([C@@H]3C[C@H](OCCO)[C@@H](O)[C@H]3O)c2n1; 94%
CNCc1ccccc1-c1csc([C@@H](C)Nc2nc(C)nc3cc(OC)c(OC)cc23)c1; 91%
CN1CCN(Cc2ccc(Nc3ncc(Cl)c(Nc4ccccc4S(=O)(=O)N(C)C)n3)cc2)CC1; 84%
CCc1ccc(OCc2ccccc2C(=O)Nc2ccc3nc(C)cc(N)c3c2)cc1.Cl; 79%
O=C(c1cc2c(cc1F)OC(c1ccc(F)cc1)(c1ccc(Cl)cc1Cl)O2)N1CCOCC1 (configuration not stated); 67%
C=CC(=O)Nc1cccc(Sc2nc(Nc3ccc(N4CCN(C)CC4)cc3)ncc2Cl)c1; 42%
Cc1c[nH]c2nccc(Oc3c(F)cc(Nc4cc(Cl)nc(N)n4)cc3F)c12; 59%
COc1ccc(-c2ccc3ncc4c(c3c2)n(-c2ccc(N3CCNCC3)c(C(F)(F)F)c2)c(=O)n4C)cn1.O=C(O)/C=C\C(=O)O; 97%
O=c1cc(N2CCOCC2)oc2c(-c3cccc4c3sc3ccccc34)cccc12; 60%

This collection of values is drawn from ChEMBL document CHEMBL4689842.
